Source listed as a melting point compilation (Tetko et al.).

Measured melting point by item

- MOLECULE: "C=CCc1cc(OC)c(OC)c(OC)c1OC"
  melting point, °C: 25
- MOLECULE: "CC1(C)OCC(C(O)C(O)C2COC(C)(C)O2)O1 (stereo unspecified)"
  melting point, °C: 114
- MOLECULE: "O=C(CCl)c1ccc(Cl)cc1Cl"
  melting point, °C: 54
- MOLECULE: "O=[N+]([O-])c1cc([N+](=O)[O-])c(/C=C/c2ccc3c(c2)OCO3)cc1/C=C\\c1ccc2c(c1)OCO2"
  melting point, °C: 215

###

# label = YES if melting point < 100 °C else NO

- COMPOUND: "CCCCCC(C)CO (stereo unspecified)"
  LABEL_VALUE: "YES"
- COMPOUND: "CCCCCCCCCCC#N"
  LABEL_VALUE: "YES"
- COMPOUND: "O=[N+]([O-])c1cc(Br)ccc1O"
  LABEL_VALUE: "YES"
- COMPOUND: "Cc1cc(C(c2ccc(C)o2)c2ccc(C)o2)c(O)c([N+](=O)[O-])c1"
  LABEL_VALUE: "YES"
- COMPOUND: "Cc1cc(C)c(N)c(C(=O)O)c1"
  LABEL_VALUE: "NO"
- COMPOUND: "NNC(=O)c1cccc(O)c1"
  LABEL_VALUE: "NO"
- COMPOUND: "CC1=NN(c2ccccc2)C(=O)C1=Cc1c(O)c2cccc(C)c2[nH]c1=O"
  LABEL_VALUE: "NO"
- COMPOUND: "CC(OC(=O)Nc1ccccc1)c1cccc(C(C)OC(=O)Nc2ccccc2)c1 (stereo unspecified)"
  LABEL_VALUE: "NO"
- COMPOUND: "C[C@]12CCC(=O)C=C1C(=O)C[C@@H]1[C@@H]2CC[C@@]2(C)[C@H]1CCC21OCCO1"
  LABEL_VALUE: "NO"
- COMPOUND: "O=c1[nH]cccc1[N+](=O)[O-]"
  LABEL_VALUE: "NO"
- COMPOUND: "O=C(c1ccccc1)c1cc(C(=O)c2ccccc2)cc(C(=O)c2ccccc2)c1"
  LABEL_VALUE: "NO"
- COMPOUND: "CC(C)[Si](C(C)C)(C(C)C)C1SCCCS1"
  LABEL_VALUE: "YES"
- COMPOUND: "O=S(=O)(CCl)c1ccccc1"
  LABEL_VALUE: "YES"
- COMPOUND: "CCCCCCCCCCCCCCCCCCCCCCCCCC(=O)O"
  LABEL_VALUE: "YES"
- COMPOUND: "C=C(C)C(=O)OCC1CO1 (stereo unspecified)"
  LABEL_VALUE: "YES"
- COMPOUND: "Cc1cc(C)c([N+](=O)[O-])c(C)c1"
  LABEL_VALUE: "YES"
- COMPOUND: "COc1ccc(OC)c2c1CC2=O"
  LABEL_VALUE: "NO"
- COMPOUND: "CCCCCCCC/C=C\\CCCCCCCC#N"
  LABEL_VALUE: "YES"
- COMPOUND: "CC(=O)Nc1ccc(C(F)(F)F)cc1Cl"
  LABEL_VALUE: "NO"
